- test.target: Thioredoxin reductase 1, cytoplasmic (Rattus norvegicus) (UniProt O89049)
- Sequence (O89049 whole entry, looked up): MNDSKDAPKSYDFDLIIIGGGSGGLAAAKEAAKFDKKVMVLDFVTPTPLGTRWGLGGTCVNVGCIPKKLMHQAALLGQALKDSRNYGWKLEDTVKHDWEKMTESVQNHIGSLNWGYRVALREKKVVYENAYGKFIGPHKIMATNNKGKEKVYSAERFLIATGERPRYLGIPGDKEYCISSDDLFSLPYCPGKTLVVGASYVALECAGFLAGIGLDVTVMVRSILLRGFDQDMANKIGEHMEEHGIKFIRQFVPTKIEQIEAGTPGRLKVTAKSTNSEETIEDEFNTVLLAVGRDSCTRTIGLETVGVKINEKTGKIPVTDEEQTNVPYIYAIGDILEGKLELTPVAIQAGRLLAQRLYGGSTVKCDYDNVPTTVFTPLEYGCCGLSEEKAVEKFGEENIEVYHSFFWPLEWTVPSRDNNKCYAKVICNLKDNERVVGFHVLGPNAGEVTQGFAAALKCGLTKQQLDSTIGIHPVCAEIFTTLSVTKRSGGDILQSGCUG
- experiment.notes: qHTS Assay for Inhibitors of Mammalian Selenoprotein Thioredoxin Reductase 1 (TrxR1): qHTS; note: nearly all actives have a fitted effect of over 65% in size
- measurement.conditions: recombinant rTrxR1, NADPH fluorescence consumption, selenite substrate; series mostly up to 114 µM
In all, about 390,000 compounds went through this assay and about 4,000 (1%) were called active. About 4% were inconclusive and are not listed. Calls come from the whole dose curve; as a rule, active = well fitted inhibition curve with a large enough effect; inconclusive = small, poorly fitted or top-dose-only effect; inactive = no such curve, though single readings can be large or run the other way. For the sample, actives were picked, then their nearest neighbours and some compounds at random.
Allowed answers: active, inactive

Check out these entries, answers already filled in.
{"molecule": "CCC(=O)c1ccc(OCC(=O)N2CCN(CC(=O)Nc3ccc(C)cc3)CC2)cc1", "test.target": "Thioredoxin reductase 1, cytoplasmic (Rattus norvegicus) (UniProt O89049)", "discrete.label": "inactive"}
{"molecule": "C=CCN(CC=C)C(=O)Nc1ccc(OCC)cc1", "test.target": "Thioredoxin reductase 1, cytoplasmic (Rattus norvegicus) (UniProt O89049)", "discrete.label": "inactive"}
{"molecule": "C=CCN1C(=O)NC(=O)/C(=C/c2ccc(OCC(=O)Nc3ccc(C)cc3)cc2)C1=O", "test.target": "Thioredoxin reductase 1, cytoplasmic (Rattus norvegicus) (UniProt O89049)", "discrete.label": "active"}
{"molecule": "Cc1ccc(-n2c(C)cc(/C=C3\\C(=O)NC(=O)N(C)C3=O)c2C)cc1C", "test.target": "Thioredoxin reductase 1, cytoplasmic (Rattus norvegicus) (UniProt O89049)", "discrete.label": "inactive"}
{"molecule": "O=C(Cn1c(=O)n(CC2CS2)c2ccccc21)N1CCCCC1 (stereo not drawn)", "test.target": "Thioredoxin reductase 1, cytoplasmic (Rattus norvegicus) (UniProt O89049)", "discrete.label": "inactive"}
{"molecule": "Cc1ccnc(-n2c(C)cc(/C=C3\\C(=O)NC(=S)N(C)C3=O)c2C)c1", "test.target": "Thioredoxin reductase 1, cytoplasmic (Rattus norvegicus) (UniProt O89049)", "discrete.label": "active"}
{"molecule": "Cc1cc(C=C2C(=O)NC(=O)NC2=O)c(C)n1-c1ccncc1", "test.target": "Thioredoxin reductase 1, cytoplasmic (Rattus norvegicus) (UniProt O89049)", "discrete.label": "inactive"}

Pending molecule:
Per the assay record, what outcome was assigned to COc1ccc2[nH]c3c(c2c1)CCN[C@H]3C ?
inactive

---

- test.target: Thioredoxin reductase 1, cytoplasmic (Rattus norvegicus)
- experiment.notes: qHTS Assay for Inhibitors of Mammalian Selenoprotein Thioredoxin Reductase 1 (TrxR1): qHTS; note: nearly all actives have a fitted effect of over 65% in size
- measurement.conditions: recombinant rTrxR1, NADPH fluorescence consumption, selenite substrate; series mostly up to 114 µM
About 4,000 (1%) of roughly 390,000 compounds were called active. Another 4% or so got no clear call; they are omitted. Calls follow the shape of the dose curve; as a rule, active = well fitted inhibition curve with a large enough effect; inconclusive = small, poorly fitted or top-dose-only effect; inactive = no such curve, though single readings can be large or run the other way. The entries come from a sample that favours actives as a whole.
Allowed answers: 1.0 for active, 0.0 for inactive

{"compound": "CCOc1ccc(C2SCC(=O)Nc3c2c(C)nn3C2CCOC(C)(C)C2)cc1 (centres undefined)", "discrete.label": 0.0}
{"compound": "CC1=CC(=Cc2sc3ccccc3[n+]2C)C=C(C)O1", "discrete.label": 0.0}
{"compound": "CN(C)CC1Oc2ccccc2OC1(O)c1ccccc1 (centres undefined)", "discrete.label": 1.0}
{"compound": "CCNc1nc2[nH]c(=O)c3c(c2s1)OC(N)=C(C#N)C3c1cccs1 (centres undefined)", "discrete.label": 0.0}

Per the assay record, what outcome was assigned to O=C1CC(=O)N(Cc2ccccc2)C(=O)N1CCCCCCN1C(=O)CC(=O)N(Cc2ccccc2)C1=O ?
1.0

Per the assay record, what outcome was assigned to COc1ccc(OC)c(NC(=O)Cn2c(=O)oc3ccccc32)c1 ?
0.0

Per the assay record, what outcome was assigned to Cc1ccc(Cn2c(C)c3cnn(CC(=O)N4CCC5(CC4)OCCO5)c(=O)c3c2C)cc1 ?
0.0

Per the assay record, what outcome was assigned to CC[C@H]1CC2CN3CCc4c([nH]c5ccccc45)C(C(=O)OC)(C2)C13 (some centres undefined) ?
0.0

Per the assay record, what outcome was assigned to OCC#CC[N+]1(CC#Cc2ccccc2)CCCC1 ?
0.0

Per the assay record, what outcome was assigned to COc1ccccc1N=Nc1c(O)[nH]c(=S)[nH]c1=O ?
0.0

Per the assay record, what outcome was assigned to CCCCN1C2CCC1CC(OC(c1ccc(F)cc1)c1ccc(F)cc1)C2 (centres undefined) ?
0.0

Per the assay record, what outcome was assigned to ClCCN(CCCl)c1ccc(C=Nc2ccc(/C=C/c3ccnc4ccccc34)cc2)cc1 ?
0.0

Per the assay record, what outcome was assigned to CCN(CC)CCOC(=O)c1cc2cc(COC)ccc2o1 ?
0.0

Per the assay record, what outcome was assigned to CCN1C(=O)C(=Cc2c(C)n(CC(=O)NCC3CCCO3)c3ccccc23)C(=O)N(CC)C1=S (centres undefined) ?
1.0

---

- test.target: Thioredoxin reductase 1, cytoplasmic (Rattus norvegicus)
- experiment.notes: qHTS Assay for Inhibitors of Mammalian Selenoprotein Thioredoxin Reductase 1 (TrxR1): qHTS; note: nearly all actives have a fitted effect of over 65% in size
- measurement.conditions: recombinant rTrxR1, NADPH fluorescence consumption, selenite substrate; series mostly up to 114 µM
Screen size: about 390,000 compounds; about 4,000 (1%) were called active. Inconclusive results (about 4%) are left out. The call rests on the fitted dose curve; in most records, active means well fitted inhibition curve with a large enough effect; inconclusive means small, poorly fitted or top-dose-only effect; inactive means no such curve, though single readings can be large or run the other way. For the sample, actives were picked, then their nearest neighbours and some compounds at random.
Allowed answers: y for active, n for inactive

Check out these entries, answers already filled in.
{"compound": "CCCCCCN=C(CC)c1c(O)n(CCCC)c(=O)[nH]c1=O", "discrete.label": "n"}
{"compound": "O=C(COC(=O)Cc1ccccc1)Nc1ccc(F)cc1", "discrete.label": "n"}
{"compound": "COc1ccc(S(=O)(=O)NCc2ccc(C(=O)N3CCC4(CC3)OCCO4)cc2)cc1", "discrete.label": "n"}
{"compound": "CN(C)CCCN=Cc1c(O)n(Cc2ccco2)c(=O)[nH]c1=O", "discrete.label": "n"}

Per the assay record, what outcome was assigned to COc1ccc(NC(=O)N2CCC3(CC2)OCCO3)c(OC)c1 ?
n

Per the assay record, what outcome was assigned to COC(=O)C1=C(c2ccc(C(C)=O)cc2)C[C@@H]2CC[C@H]1N2C(=O)NCCNC(C)=O ?
n

Per the assay record, what outcome was assigned to O=C(O)C1C2CCC(O2)C1C(=O)O (stereo unspecified) ?
n

---

- test.target: Thioredoxin reductase 1, cytoplasmic (Rattus norvegicus) (UniProt O89049)
- experiment.notes: qHTS Assay for Inhibitors of Mammalian Selenoprotein Thioredoxin Reductase 1 (TrxR1): qHTS; note: nearly all actives have a fitted effect of over 65% in size
- measurement.conditions: recombinant rTrxR1, NADPH fluorescence consumption, selenite substrate; series mostly up to 114 µM
- Text: The selenoprotein thioredoxin reductase (TrxR; EC 1.8.1.9) is a FAD containing homodimeric pyridine nucleotide-disulfide oxidoreductase with many cellular roles. Together with NADPH and its prime substrate thioredoxin (Trx), the enzyme forms the core of the Trx system. […] This BioAssay is a validation of an NADPH fluorescence-based, dual-purpose qHTS rTrxR1 assay designed to find potential inhibitors and substrates of rTrxR1. […]
Out of some 390,000 compounds screened, about 4,000 (1%) were called active. Not shown: some 4% with an inconclusive outcome. Calls follow the shape of the dose curve; as a rule, active = well fitted inhibition curve with a large enough effect; inconclusive = small, poorly fitted or top-dose-only effect; inactive = no such curve, though single readings can be large or run the other way. Only a selection was taken, and actives are over-represented in it overall.
Allowed answers: active, inactive

{"compound": "c1ccc(CCNC2CCCCCC2)cc1", "test.target": "Thioredoxin reductase 1, cytoplasmic (Rattus norvegicus) (UniProt O89049)", "discrete.label": "inactive"}
{"compound": "O=[N+]([O-])c1ccc(Cl)c(Cl)c1", "test.target": "Thioredoxin reductase 1, cytoplasmic (Rattus norvegicus) (UniProt O89049)", "discrete.label": "inactive"}
{"compound": "CC(C)(C)c1ccc(CN2C(=O)CN=C(c3ccccc3)c3ccccc32)cc1", "test.target": "Thioredoxin reductase 1, cytoplasmic (Rattus norvegicus) (UniProt O89049)", "discrete.label": "inactive"}
{"compound": "CC(=O)Cc1ccc(OC(C)C)cc1", "test.target": "Thioredoxin reductase 1, cytoplasmic (Rattus norvegicus) (UniProt O89049)", "discrete.label": "inactive"}
{"compound": "O=C(O)C1CSC(c2cccnc2)N1 (stereo not given)", "test.target": "Thioredoxin reductase 1, cytoplasmic (Rattus norvegicus) (UniProt O89049)", "discrete.label": "inactive"}

Per the assay record, what outcome was assigned to O=c1[nH]c(O)c(C=Nc2cc(F)cc(F)c2)c(=O)[nH]1 ?
inactive

---

- test.target: Thioredoxin reductase 1, cytoplasmic (Rattus norvegicus) (UniProt O89049)
- experiment.notes: qHTS Assay for Inhibitors of Mammalian Selenoprotein Thioredoxin Reductase 1 (TrxR1): qHTS; note: nearly all actives have a fitted effect of over 65% in size
- measurement.conditions: recombinant rTrxR1, NADPH fluorescence consumption, selenite substrate; series mostly up to 114 µM
The whole screen tested about 390,000 compounds, of which about 4,000 (1%) were called active. Inconclusive results (about 4%) are left out. Calls follow the shape of the dose curve; as a rule, active = well fitted inhibition curve with a large enough effect; inconclusive = small, poorly fitted or top-dose-only effect; inactive = no such curve, though single readings can be large or run the other way. The full list was thinned out, with actives kept by preference.
Allowed answers: active, inactive

{"molecule": "CCC1(C)CC(=O)NC1=O (centres undefined)", "discrete.label": "inactive"}
{"molecule": "C[N+]1(C)CCOC(O)(c2ccc(-c3ccc(C4(O)C[N+](C)(C)CCO4)cc3)cc2)C1 (centres undefined)", "discrete.label": "inactive"}
{"molecule": "COC(=O)C1=C(c2cc3ccccc3s2)C[C@@H]2CC[C@H]1N2C(=O)NCCO", "discrete.label": "inactive"}

Pending molecule:
Per the assay record, what outcome was assigned to COc1ccc(-c2nc(CS(=O)CC(=O)N3CCC4(CC3)OCCO4)c(C)o2)cc1 (centres undefined) ?
active

Hey, just so you know, these numbers are from PubChem BioAssay AID588453.
